# method_summary: Inhibition of HCMV protease
# Set-up: species or system Human betaherpesvirus 5
assay_endpoint: IC50 (µM)
// units = µM; emit number, no label

## Task Specify reported IC50 for the compound shown: CC(C)C1O/C(=C2/C(=O)NC(CC(N)=O)C2=O)C=CC1C (stereo unspecified)
## Result 30

The origin of these recorded values is ChEMBL document CHEMBL1146433.
